Data origin, for the record: PubChem BioAssay AID2305

# System: P. falciparum 3D7 growth, pLDH absorbance
# assay_text: blood-stage malaria parasite growth potency – strain 3D7, dose response (AID 2305)
# pIC50 per record follows
Convention used: pIC50 is expressed as -log10 of the molar concentration.

| compound | pIC50 |
| --- | --- |
| COc1ccc2c(c1CNCCCCCCNCc1c(OC)ccc3c1CCCC3)CCCC2 | 6.04 |

Sure, the documented pIC50 for COc1cc(NC2=C(c3ccccc3)C(=O)c3ccccc32)ccn1 is 6.44

Sure, the documented pIC50 for CNc1nc(Nc2ccccc2C)nc2ccccc12 is 6.36

Sure, the documented pIC50 for CS(=O)(=O)c1ccc(-c2cnc(N)c(-c3cccc(O)c3)c2)cc1 is 6.16

Sure, the documented pIC50 for Cc1cc(Nc2ncc(Cl)c(Nc3ccccc3C(N)=O)n2)n[nH]1 is 6.09

Sure, the documented pIC50 for COc1ccc(CNC2CCN(C)CC2)cc1-c1ccc(S(=O)(=O)NCC2CCCO2)s1 (stereo not drawn) is 6.10

Sure, the documented pIC50 for CN(C)CCc1c[nH]c2ccc(C(=O)Nc3ccc(-c4ccncc4)cc3)cc12 is 6.24

Sure, the documented pIC50 for CC(C)(C)CCN1CCC(NC(=O)c2ccc(-c3cccc(C(F)(F)F)c3)s2)CC1 is 6.12

Sure, the documented pIC50 for Cc1[nH]c2ccc([N+](=O)[O-])cc2c1C1=CCN(C)CC1 is 6.48

Sure, the documented pIC50 for CCCN1CCC(c2c[nH]c3ccc(NC(=O)Nc4cccc(Cl)c4Cl)cc23)CC1 is 6.09
